- SYSTEM: T1, mouse ACVR2A (mouse, UniProt P27038 20-135, limits assumed); further: test concentration or dose not given here
- T1 construct: coated antigen of the initial ELISA
- T1 sequence (P27038 20-135 limits assumed): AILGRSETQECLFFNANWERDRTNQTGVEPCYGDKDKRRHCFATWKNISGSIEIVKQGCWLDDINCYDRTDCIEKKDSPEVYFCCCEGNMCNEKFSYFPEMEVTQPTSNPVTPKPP
- ASSAY REMARKS: ELISA
// label 0 strictly below 3 OD in optical density; label 1 otherwise

Known results for binders:
binder="372_D03 (antibody, V domains shown, Group III) VH: EVQLLESGGGLVQPGGSLRLSCAASGFTFSSYSMNWVRQAPGKGLEWVAGINYNSGYKSYADSVKGRFTISRDNSKNTLYLQMNSLRAEDTAVYYCARGANWHDTALDYWGQGTLVTVSS VL: DIQMTQSPSSLSASVGDRVTITCRASQSILSYVNWYQQKPGKAPKLVIYAVTSRHSGVPSRFSGSGSGTDFTLTISSLQPEDFATYYCQQSYDSPLTFGGGTKVEIK" qualitative_label="label 1"
binder="371_C05 (antibody, V domains shown, Group III) VH: EVQLLESGGGLVQPGGSLRLSCAASGFTFSDYGMHWVRQAPGKGLEWVANINYNGGYTGYADSVKGRFTISRDNSKNTLYLQMNSLRAEDTAVYYCARGANWHDTALDYWGQGTLVTVSS VL: DIQMTQSPSSLSASVGDRVTITCRASQSILSYLNWYQQKPGKAPKLLIYAATSRASGVPSRFSGSGSGTDFTLTISSLQPEDFATYYCQQSYDSPLTFGGGTKVEIK" qualitative_label="label 0"
binder="374_H01 (antibody, V domains shown, Group III) VH: EVQLLESGGGLVQPGGSLRLSCAASGFTFDSYSMNWVRQAPGKGLEWVAGINYNGGYTSYADSVKGRFTISRDNSKNTLYLQMNSLRAEDTAVYYCARGANWHDTHLDYWGQGTLVTVSS VL: DIQMTQSPSSLSASVGDRVTITCRASQSILSYLNWYQQKPGKAPKLVIYAATSLASGVPSRFSGSGSGTDFTLTISSLQPEDFATYYCQQSYENPLTFGGGTKVEIK" qualitative_label="label 1"
binder="370_B11 (antibody, V domains shown, Group III) VH: EVQLLESGGGLVQPGGSLRLSCAASGFTFDSYSMNWVRQAPGKGLEWVSGINYNSGYTSYADSVKGRFTISRDNSKNTLYLQMNSLRAEDTAVYYCARGANWHDTHLDYWGQGTLVTVSS VL: DIQMTQSPSSLSASVGDRVTITCRASQSILSYLNWYQQKPGKAPKLVIYAATSRHSGVPSRFSGSGSGTDFTLTISSLQPEDFATYYCQQGYDLPLTFGGGTKVEIK" qualitative_label="label 0"

Now look at this entry.
Prompt: Quick check, optical density >= 3 OD? 369_C05 (antibody, V domains shown, Group III) VH: EVQLLESGGGLVQPGGSLRLSCAASGFTFDSYSMNWVRQAPGKGLEWVAGINYNGGYTSYADSVKGRFTISRDNSKNTLYLQMNSLRAEDTAVYYCARGANWHDTALDYWGQGTLVTVSS VL: DIQMTQSPSSLSASVGDRVTITCRASQSISSYVNWYQQKPGKAPKLVIYATTSRHSGVPSRFSGSGSGTDFTLTISSLQPEDFATYYCQQSYNSPLTFGGGTKVEIK
Completion: label 0
